Target: T1, Human LRP6-Fc (R&D Systems), recombinant human LRP6 containing the complete extracellular domain (human, UniProt O75581 20-1370)
T1 construct: Bought protein; also called hLRP6; Fc-antigen; not shown: Fc part of the bought fusion protein
T1 sequence: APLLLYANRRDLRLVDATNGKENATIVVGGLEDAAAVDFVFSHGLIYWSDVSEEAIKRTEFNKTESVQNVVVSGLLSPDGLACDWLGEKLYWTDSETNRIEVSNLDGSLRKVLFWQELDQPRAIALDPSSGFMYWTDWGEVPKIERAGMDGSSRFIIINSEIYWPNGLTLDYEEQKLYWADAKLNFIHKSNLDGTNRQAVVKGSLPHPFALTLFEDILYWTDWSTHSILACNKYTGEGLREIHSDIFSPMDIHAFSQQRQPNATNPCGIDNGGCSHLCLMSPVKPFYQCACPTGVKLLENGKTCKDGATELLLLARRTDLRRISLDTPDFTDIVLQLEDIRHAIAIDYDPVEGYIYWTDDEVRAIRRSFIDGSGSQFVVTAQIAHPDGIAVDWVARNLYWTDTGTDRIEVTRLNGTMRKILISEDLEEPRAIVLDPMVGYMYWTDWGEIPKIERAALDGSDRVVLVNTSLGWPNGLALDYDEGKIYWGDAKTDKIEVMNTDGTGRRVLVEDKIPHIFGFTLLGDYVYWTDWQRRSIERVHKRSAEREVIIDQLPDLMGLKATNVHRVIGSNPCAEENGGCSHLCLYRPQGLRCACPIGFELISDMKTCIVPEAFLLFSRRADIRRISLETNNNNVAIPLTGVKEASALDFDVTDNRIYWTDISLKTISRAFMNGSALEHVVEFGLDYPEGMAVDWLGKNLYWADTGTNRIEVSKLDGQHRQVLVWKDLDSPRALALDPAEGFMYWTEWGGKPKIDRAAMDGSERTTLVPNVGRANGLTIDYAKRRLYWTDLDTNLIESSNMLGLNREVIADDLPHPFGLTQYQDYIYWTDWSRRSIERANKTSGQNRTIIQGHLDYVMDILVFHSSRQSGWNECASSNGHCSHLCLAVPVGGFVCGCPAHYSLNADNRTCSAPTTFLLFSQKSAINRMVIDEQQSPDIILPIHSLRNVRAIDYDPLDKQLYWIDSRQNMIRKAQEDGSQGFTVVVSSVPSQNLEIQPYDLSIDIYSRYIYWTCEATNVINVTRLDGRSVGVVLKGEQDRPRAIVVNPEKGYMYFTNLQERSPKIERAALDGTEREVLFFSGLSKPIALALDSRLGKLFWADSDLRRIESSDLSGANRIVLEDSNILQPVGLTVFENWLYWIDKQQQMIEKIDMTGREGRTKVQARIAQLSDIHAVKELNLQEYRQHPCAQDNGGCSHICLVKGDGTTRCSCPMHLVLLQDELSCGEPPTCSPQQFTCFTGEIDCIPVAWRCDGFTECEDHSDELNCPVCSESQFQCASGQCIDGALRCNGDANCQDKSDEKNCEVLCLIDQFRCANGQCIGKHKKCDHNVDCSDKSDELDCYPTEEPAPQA
Experiment: SPR (BIAcore), mAb captured on anti-mouse chip, Fc-antigen injected, 1:1 model

{"Binder": "anti-LRP6 monoclonal antibody 1433.8 (antibody, V domains shown, Murine hybridoma mAb, protein G purified; also called VH21/VL21) VH: QVQLQQSGAELAKPGASVKMSCKASGYTFTSYWMHWVKQRPGQGLEWIGYINPSTGYTEYNQKFRDKATLTADKSSSTANMQLSSLTSEDSAVYYCTRTAQYYGSPRGYYAMDSWGQGTSVTVSS VL: MTQAAFSNPVTLGTSASISCRSSKSLLHSNGITYLCWFLQKPGQSPQLLIYLMSNLASGVPDRFSSSGSGTDFTLRISRVEAEDVGVYFCAQNLDLPWTFGGGTKLEI", "koff [s⁻¹]": "7.7e-05"}
{"Binder": "anti-LRP6 monoclonal antibody 537.2 (antibody, V domains shown, Murine hybridoma mAb, protein G purified; also called VH8/VL8) VH: DVQLQESGPGLVKPSQSLSLTCSVTGYSITSGYYWNWIRQFPGDKLEWMGHINYDGRDNYNPSLKNRISITRDTSKNQFFLKLNSVTTEDTATYYCAREFGNFPYYFDYWGQGTTLTVSS VL: QIVLTQSPAIMSASPGEKVTISCSAYSSVRFMFWYQQKPGSSPKPLIYRTSNLASGVSARFSGSGSGTSYSLTISSMEAEDAATYYCQQYHSYPWTFGGGTKLEI", "koff [s⁻¹]": "3.15e-05"}
